Provide the reported Phage binding ELISA, Anti-CD28 Fab signal in the presence of CD28 of each item.
- TARGET OF ASSAY: Anti-CD28 Fab (SEQ ID NOs: 696, 697)
- Sequence (VH, as listed by the source, chain 1 of 2): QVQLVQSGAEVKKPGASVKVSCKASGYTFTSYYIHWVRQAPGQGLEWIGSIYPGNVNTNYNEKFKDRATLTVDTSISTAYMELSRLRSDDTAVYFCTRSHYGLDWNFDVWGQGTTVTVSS
- Sequence (VL, as listed by the source, chain 2 of 2): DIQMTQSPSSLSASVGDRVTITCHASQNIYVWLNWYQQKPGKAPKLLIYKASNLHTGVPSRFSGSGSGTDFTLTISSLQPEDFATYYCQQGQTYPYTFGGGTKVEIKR
- ASSAY EXPLANATION: phage ELISA on captured anti-CD28 Fab; competitor CD28 antigen pre-incubated in the wells;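 note: clonal phage supernatants added to wells preloaded with CD28 antigen in blocking buffer, control wells buffer only, bound phage read via HRP-linked anti-M13 antibody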
Numbers only.

// known answers, use as guide
BINDER	ASSAY RESULT
YCDGHLSEYMFKCL [Phage-821 (Peptide-87 library peptide, SEQ ID NO: 1137)]	0.1
YCDGHLGVYMAKCL [Phage-822 (Peptide-87 library peptide, SEQ ID NO: 1138)]	0.07
YCDGHTREYIDKCL [Phage-818 (Peptide-87 library peptide, SEQ ID NO: 1134)]	0.08
YCDGHTSEYITKCL [Phage-823 (Peptide-87 library peptide, SEQ ID NO: 1139)]	0.07
YCQGHSAEYMMKCL [Phage-814 (Peptide-87 library peptide, SEQ ID NO: 1130)]	0.07
YCVGHAPEFMAKCL [Phage-819 (Peptide-87 library peptide, SEQ ID NO: 1135)]	0.1

Provide Phage binding ELISA, Anti-CD28 Fab signal in the presence of CD28 for all items below, preserving their order.
1. YCDGHKAEYMEKCL [Phage-816 (Peptide-87 library peptide, SEQ ID NO: 1132)]
2. YCDGHAPMYMAKCL [Phage-826 (Peptide-87 library peptide, SEQ ID NO: 1142)]
3. YCAGHAEQYMAKCL [Phage-820 (Peptide-87 library peptide, SEQ ID NO: 1136)]
4. YCAGHLPQYMNKCL [Phage-815 (Peptide-87 library peptide, SEQ ID NO: 1131)]
5. YCDGHSPEYIAKCL [Phage-824 (Peptide-87 library peptide, SEQ ID NO: 1140)]

1. 0.09
2. 0.08
3. 0.08
4. 0.06
5. 0.23

Provide the reported Phage binding ELISA, Anti-CD28 Fab signal in the presence of CD28 of each entry below, same order.
1. YCAGHLPMYMAKCL [Phage-817 (Peptide-87 library peptide, SEQ ID NO: 1133)]
2. YCDGHLAEYMVKCL [Phage-825 (Peptide-87 library peptide, SEQ ID NO: 1141)]

1: 0.08; 2: 0.08
